system: Mythimna separata; assay: Insecticidal activity against fourth-instar larval stage of Mythimna separata (Oriental armyworm) in compound pretreated Zea mays L. Tangyu 10 leaves assessed as mortality at 200 mg/l at 25 +/-1 degC after 2 days; type: functional
assayEndpoint: mortality at 200 µg/mL (%)
# unit: % | format: bare number

Answered examples (4):
{"lineNotation": "CNC(=O)c1cc(Cl)cc(C)c1NC(=O)c1cc(COC(C)=O)nn1-c1ncccc1Cl", "observed": 100}
{"lineNotation": "CNC(=O)c1cc(Cl)cc(C)c1NC(=O)c1cc(COC(=O)c2ccccc2)nn1-c1ncccc1Cl", "observed": 100}
{"lineNotation": "CNC(=O)c1cc(Cl)cc(C)c1NC(=O)c1cc(C(=O)OC(C)C)nn1-c1ncccc1Cl", "observed": 80}
{"lineNotation": "CNC(=O)c1cc(Cl)cc(C)c1NC(=O)c1cc(COC(=O)CCCCl)nn1-c1ncccc1Cl", "observed": 100}

Shifting focus to the compound that follows.
query: API: value(readout= mortality at 200 µg/mL, system= Mythimna separata, query= `CNC(=O)c1cc(Cl)cc(C)c1NC(=O)c1cc(C(=O)NC2CCCCC2)nn1-c1ncccc1Cl` )
result: 0
